- Tested on: A. baumannii ATCC 17978 (SEN) and A. baumannii ATCC BAA-1605 (MDR)
- ASSAY PROTOCOL: Adaptive laboratory evolution (ALE), relative MIC of evolved lines
- Format: cell-based, Acinetobacter baumannii
- RECORDED CONDITIONS: AB-SEN (Acinetobacter baumannii ATCC 17978), evolved line 2 adapted to the named antibiotic
REPORTED METRIC: Relative MIC (log10)

>>> observed_value("CNC(C)C1CCC(N)C(OC2C(N)CC(N)C(OC3OCC(C)(O)C(NC)C3O)C2O)O1 (centres unmarked)")
2.709
>>> observed_value("CN(C)[C@@H]1C(O)=C(C(N)=O)C(=O)[C@@]2(O)C(O)=C3C(=O)c4c(O)c(NC(=O)CN5CCCC5)cc(F)c4C[C@H]3C[C@@H]12")
2.107
>>> observed_value("Nc1nc(-n2cc(C(=O)O)c(=O)c3cc(F)c(N4CC(O)C4)c(Cl)c32)c(F)cc1F")
2.107
>>> observed_value("CN[C@@H]1[C@@H](O[C@H]2O[C@H](CO)[C@@H](N)[C@H](O)[C@H]2O)OC2C[C@@H](N)[C@@H](O[C@H]3[C@H](O)[C@@H](O)[C@H](N)C[C@@H]3N)OC2[C@@H]1O (some centres unmarked)")
1.806
>>> observed_value("C[C@H]1c2cccc(O)c2C(=O)C2=C(O)[C@]3(O)C(=O)C(C(N)=O)=C(O)[C@@H](N(C)C)[C@@H]3[C@@H](O)[C@@H]21")
1.806

* * *

- Tested on: P. aeruginosa ATCC BAA-3107 (SEN) and P. aeruginosa LESB58 (MDR)
- ASSAY PROTOCOL: Adaptive laboratory evolution (ALE), relative MIC of evolved lines
- Format: cell-based, Pseudomonas aeruginosa
- RECORDED CONDITIONS: Pseudomonas aeruginosa ATCC BAA 3107 (PA-SEN), evolved line 2
- Text: Using the same set of bacterial strains, we initiated adaptive laboratory evolution with the aim to maximize the level of antibiotic resistance in the populations achieved during a longer, but fixed time period. […] A robotic liquid handling system was used to automatically prepare a 11 to 16-step serial dilution in 384-well microtiter plates (Greiner). […] Cell growth was monitored by measuring the optical density (OD600 values, using Biotek Synergy microplate reader). […]
Where a SMILES comes first, the peptide text is derived from it. Bridges are numbered along the chain shown (N, C = ends). [ ]: non-standard residue; d: D form. The star is where a group is joined. X1 = NC[C@@H](CC(=O)*)c1cccc(Cl)c1; Dab = NCC[C@H](N)C(=O)O; Dap = NC[C@H](N)C(=O)O
REPORTED METRIC: Relative MIC

>>> observed_value("C[C@H]1c2cccc(O)c2C(=O)C2=C(O)[C@]3(O)C(=O)C(C(N)=O)=C(O)[C@@H](N(C)C)[C@@H]3[C@@H](O)[C@@H]21")
64
>>> observed_value("Nc1nc(-n2cc(C(=O)O)c(=O)c3cc(F)c(N4CC(O)C4)c(Cl)c32)c(F)cc1F")
2048
>>> observed_value("CC(C)C[C@@H]1NC(=O)[C@@H](Cc2ccccc2)NC(=O)[C@H](CCN)NC(=O)[C@@H](NC(=O)[C@H](CN)NC(=O)[C@@H](NC(=O)C[C@H](CN)c2cccc(Cl)c2)[C@@H](C)O)CCNC(=O)[C@H]([C@@H](C)O)NC(=O)[C@H](CCN)NC(=O)[C@H](CCN)NC1=O [SPR206] (X1-T[Dap][Dab][Dab][dF]L[Dab][Dab]T; lactam 3-C (inferred); N-terminus assumed)")
32
>>> observed_value("CN(C)[C@@H]1C(O)=C(C(N)=O)C(=O)[C@@]2(O)C(O)=C3C(=O)c4c(O)c(NC(=O)CN5CCCC5)cc(F)c4C[C@H]3C[C@@H]12")
32

* * *

- Tested on: A. baumannii ATCC 17978 (SEN) and A. baumannii ATCC BAA-1605 (MDR)
- ASSAY PROTOCOL: Adaptive laboratory evolution (ALE), relative MIC of evolved lines
- Assay type: cell-based, Acinetobacter baumannii
- RECORDED CONDITIONS: Acinetobacter baumannii ATCC 17978 (AB-SEN), evolved line 5
- Description: Using the same set of bacterial strains, we initiated adaptive laboratory evolution with the aim to maximize the level of antibiotic resistance in the populations achieved during a longer, but fixed time period. […] A robotic liquid handling system was used to automatically prepare a 11 to 16-step serial dilution in 384-well microtiter plates (Greiner). […] Cell growth was monitored by measuring the optical density (OD600 values, using Biotek Synergy microplate reader). […]
Where a SMILES comes first, the peptide text is derived from it. Bridges are numbered along the chain shown (N, C = ends). [ ]: non-standard residue; d: D form. The star is where a group is joined. X1 = NC[C@@H](CC(=O)*)c1cccc(Cl)c1; Dab = NCC[C@H](N)C(=O)O; Dap = NC[C@H](N)C(=O)O
REPORTED METRIC: Relative MIC

>>> observed_value("CNC(C)C1CCC(N)C(OC2C(N)CC(N)C(OC3OCC(C)(O)C(NC)C3O)C2O)O1 (stereo not shown) [Gentamicin]")
512
>>> observed_value("Nc1nc(-n2cc(C(=O)O)c(=O)c3cc(F)c(N4CC(O)C4)c(Cl)c32)c(F)cc1F [Delafloxacin]")
512
>>> observed_value("CN[C@@H]1[C@@H](O[C@H]2O[C@H](CO)[C@@H](N)[C@H](O)[C@H]2O)OC2C[C@@H](N)[C@@H](O[C@H]3[C@H](O)[C@@H](O)[C@H](N)C[C@@H]3N)OC2[C@@H]1O (stereo partly shown) [Apramycin]")
32
>>> observed_value("C[C@@H](O)[C@H]1C(=O)N2C(C(=O)O)=C(S[C@H]3CC[S@@+]([O-])C3)S[C@H]12 [Sulopenem]")
64
>>> observed_value("CN(C)[C@@H]1C(O)=C(C(N)=O)C(=O)[C@@]2(O)C(O)=C3C(=O)c4c(O)c(NC(=O)CN5CCCC5)cc(F)c4C[C@H]3C[C@@H]12 [Eravacycline]")
128
>>> observed_value("CC(C)C[C@@H]1NC(=O)[C@@H](Cc2ccccc2)NC(=O)[C@H](CCN)NC(=O)[C@@H](NC(=O)[C@H](CN)NC(=O)[C@@H](NC(=O)C[C@H](CN)c2cccc(Cl)c2)[C@@H](C)O)CCNC(=O)[C@H]([C@@H](C)O)NC(=O)[C@H](CCN)NC(=O)[C@H](CCN)NC1=O [SPR206] (X1-T[Dap][Dab][Dab][dF]L[Dab][Dab]T; lactam 3-C (inferred); N-terminus assumed)")
8192
>>> observed_value("C[C@H]1c2cccc(O)c2C(=O)C2=C(O)[C@]3(O)C(=O)C(C(N)=O)=C(O)[C@@H](N(C)C)[C@@H]3[C@@H](O)[C@@H]21 [Doxycycline]")
32

* * *

- Tested on: K. pneumoniae ATCC 10031 (SEN) and K. pneumoniae ATCC 700603 (MDR)
- ASSAY PROTOCOL: Frequency-of-resistance (FoR) assay, relative MIC of mutants
- Assay type: cell-based, Klebsiella pneumoniae
- RECORDED CONDITIONS: Klebsiella pneumoniae, read-out: MIC of evolved line, Klebsiella pneumoniae ATCC 10031 (KP-SEN); evolved line 1
REPORTED METRIC: MIC (µg/mL)

>>> observed_value("C[C@@H](O)[C@H]1C(=O)N2C(C(=O)O)=C(S[C@@H]3CN[C@H](C(=O)N(C)C)C3)[C@H](C)[C@H]12")
0.0156
>>> observed_value("C[C@@H]1CN2c3c(cc4c(N5C(=O)OC[C@@H]5C)noc4c3F)CC3(C(=O)NC(=O)NC3=O)[C@H]2[C@H](C)O1")
4
>>> observed_value("CNC(C)C1CCC(N)C(OC2C(N)CC(N)C(OC3OCC(C)(O)C(NC)C3O)C2O)O1 (stereo not shown)")
0.5
>>> observed_value("C[C@H]1c2cccc(O)c2C(=O)C2=C(O)[C@]3(O)C(=O)C(C(N)=O)=C(O)[C@@H](N(C)C)[C@@H]3[C@@H](O)[C@@H]21")
1

* * *

- Tested on: A. baumannii ATCC 17978 (SEN) and A. baumannii ATCC BAA-1605 (MDR)
- ASSAY PROTOCOL: Adaptive laboratory evolution (ALE), relative MIC of evolved lines
- Assay type: cell-based, Acinetobacter baumannii
- RECORDED CONDITIONS: AB-SEN (Acinetobacter baumannii ATCC 17978), evolved line 4
Where a SMILES comes first, the peptide text is derived from it. Bridges are numbered along the chain shown (N, C = ends). [ ]: non-standard residue; d: D form. The star is where a group is joined. X1 = NC[C@@H](CC(=O)*)c1cccc(Cl)c1; Dab = NCC[C@H](N)C(=O)O; Dap = NC[C@H](N)C(=O)O
REPORTED METRIC: Relative MIC

>>> observed_value("CN(C)c1cc(CNCC(C)(C)C)c(O)c2c1C[C@H]1C[C@H]3[C@H](N(C)C)C(O)=C(C(N)=O)C(=O)[C@@]3(O)C(O)=C1C2=O [Omadacycline]")
32
>>> observed_value("O=c1ccc2ncc(=O)n3c2n1C[C@H]3CN1CCC(NCc2cc3c(cn2)OCCC3)CC1 [Gepotidacin]")
64
>>> observed_value("CC(C)C[C@@H]1NC(=O)[C@@H](Cc2ccccc2)NC(=O)[C@H](CCN)NC(=O)[C@@H](NC(=O)[C@H](CN)NC(=O)[C@@H](NC(=O)C[C@H](CN)c2cccc(Cl)c2)[C@@H](C)O)CCNC(=O)[C@H]([C@@H](C)O)NC(=O)[C@H](CCN)NC(=O)[C@H](CCN)NC1=O [SPR206] (X1-T[Dap][Dab][Dab][dF]L[Dab][Dab]T; lactam 3-C (inferred); N-terminus assumed)")
2048
>>> observed_value("CC(C)c1ccc(Cn2ccc3c4c(N)nc(NC5CC5)nc4ccc32)cc1 [SCH79797]")
2
